# TARGET SYSTEM: T1, ZFP SBS#410 (synthetic)
# T1 chain: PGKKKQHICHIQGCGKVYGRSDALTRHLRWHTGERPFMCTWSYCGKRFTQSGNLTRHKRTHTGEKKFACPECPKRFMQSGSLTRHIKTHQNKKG
# ASSAY METHOD TEXT: EMSA
# STATED CONDITIONS: tags: MBP fusion
ENDPOINT: pKd
Notebook: values listed as pKd are -log10 of the concentration (mol/L).

IN: If you can, please state the reported pKd value of GCAGAAGTC (dsDNA) DNA 1: GCAGAAGTC DNA 2: GACTTCTGC .
OUT: 8.52
